All values here come from patent US20210101932A1.

# measuredOn: T1, Recombinant human PD-L1 (Sino Biologicals or R&D systems), biotinylated (human, UniProt Q9NZQ7 19-238, limits assumed, biotinylated with EZ-Link Sulfo-NHS-LC-LC-Biotin)
# T1 construct: captured on a streptavidin CM5 chip for SPR; also called human PD-L1 protein; Biotinylated PD-L1
# measurementDescription: SPR (Biacore), biotinylated PD-L1 on streptavidin chip
# Protocol: Biacore experiments were performed to determine kₐ) (M⁻¹s⁻¹), kd (s⁻¹), KD (nM) values of monomeric peptides binding to human PD-L1 protein. […] The protein was desalted to remove uncoupled biotin using spin columns into PBS. For analysis of binding, a Biacore 3000 instrument was used utilizing a CM5 sensor chip (GE Healthcare). Streptavidin was immobilized on the chip using standard amine-coupling chemistry at 25° C. with HBS-N (10 mM HEPES, 0.15 M NaCl, pH 7.4) as the running buffer. […]
pKd: −log10 of the molar value. *1 amine or outer side, *2 acyl side, *3 side chain or, on linkers, in order; H or OH if unused. Bridges are numbered along the chain shown (N, C = ends). Where no end group is shown, it is not given here. [ ]: non-standard residue; d: D form. TATA = O=C(CC[*:1])N1CN(C(=O)CC[*:2])CN(C(=O)CC[*:3])C1; hArg = N=C(N)NCCCC[C@H](N)C(=O)O; Aad = N[C@@H](CCCC(=O)O)C(=O)O; Nva = CCC[C@H](N)C(=O)O
measurementName: pKd

* SDKCSAGWLTXCQKLHLCA ([Nle] as in SDKCSAGWLT[Nle]CQKLHLCA; Ci, Cii, Ciii cyclised on TATA) [BCY10058] | 7.22
* Ac-SEKCS[Aad]GWLTMCLKLHLCPSH (linker 4-12-18 via TATA) [BCY11831] | 7.88
* Ac-SDKCS[Aad]GWLTMCLKLHLCA (linker 4-12-18 via TATA) [BCY11828] | 7.78
* Ac-KCS[Aad]GWLTMCLKLHLC (linker 2-10-16 via TATA; not fully specified (C-terminus); printed as Ac-KCS[Aad]GWLTMCLKLHLC) [BCY11824] | 7.22
* SDKCSAGWLTMCQKXHLCA ([Nle] as in SDKCSAGWLTMCQK[Nle]HLCA; Ci, Cii, Ciii cyclised on TATA) [BCY10071] | 7.24
* Ac-EKCS[Aad]GWLTMCLKLHLC (linker 3-11-17 via TATA) [BCY11826] | 7.74
* Ac-SDKCSEGWLTMCQKLHLC (linker 4-12-18 via TATA; not fully specified (C-terminus); printed as [Ac]SDKCSEGWLTMCQKLHLC) [BCY10960] | 8.00
* SDKCSAGWLTMCQKLHXCA ([Nle] as in SDKCSAGWLTMCQKLH[Nle]CA; Ci, Cii, Ciii cyclised on TATA) [BCY10074] | 7.44
* SDXCSAGWLTMCQKLHLCA ([HArg] (homoarginine) = X at chain position 3; Ci, Cii, Ciii cyclised on TATA) [BCY10052] | 7.65
* Ac-[hArg]CS[Aad]GWLTMCLKLHLC (linker 2-10-16 via TATA; not fully specified (C-terminus); printed as Ac-[HArg]CS[Aad]GWLTMCLKLHLC) [BCY11827] | 7.52
* SDKCSAGWLTMCQKLH[Nva]CA (linker 4-12-18 via TATA) [BCY10083] | 7.12
